// Serratia marcescens MA-26 MIC records
endpoint: MIC (µg/mL)

>  <compound>
NC[C@H]1O[C@H](O[C@H]2[C@H](O)[C@@H](O[C@H]3O[C@H](CO)[C@@H](O)[C@H](N)[C@H]3O)[C@H](NC(=O)C3(O)CCNCC3)C[C@@H]2N)[C@H](N)C[C@@H]1O

>  <measurementTarget>
Serratia marcescens MA-26

>  <unitName>
µg/mL

>  <inequalitySymbol>
=

>  <value>
12.5

$$$$
>  <compound>
NC[C@H]1O[C@H](O[C@H]2[C@H](O)[C@@H](O[C@H]3O[C@H](CO)[C@@H](O)[C@H](N)[C@H]3O)[C@H](N)C[C@@H]2N)[C@H](N)C[C@@H]1O

>  <measurementTarget>
Serratia marcescens MA-26

>  <unitName>
µg/mL

>  <inequalitySymbol>
=

>  <value>
50

$$$$
>  <compound>
NC[C@H]1O[C@H](O[C@H]2[C@H](O)[C@@H](O[C@H]3O[C@H](CO)[C@@H](O)[C@H](N)[C@H]3O)[C@H](N)C[C@@H]2N)[C@H](O)[C@@H](O)[C@@H]1O

>  <measurementTarget>
Serratia marcescens MA-26

>  <unitName>
µg/mL

>  <inequalitySymbol>
>

>  <value>
100

$$$$
>  <compound>
NC[C@H]1O[C@H](O[C@H]2[C@H](O)[C@@H](O[C@H]3O[C@H](CO)[C@@H](O)[C@H](N)[C@H]3O)[C@H](NC(=O)C3(O)CCNC3)C[C@@H]2N)[C@H](O)[C@@H](O)[C@@H]1O (stereo partly shown)

>  <measurementTarget>
Serratia marcescens MA-26

>  <unitName>
µg/mL

>  <inequalitySymbol>
=

>  <value>
6.25

$$$$
